Reference source: PubChem BioAssay

method: StAR promoter reporter inhibitors, counter-screen for LRH-1 inverse agonist project, cell-based, luminescence, high throughput (AID 651611)
experimental_conditions: StAR promoter luciferase reporter counterscreen, at 3.6 µM, hits give high values
inhibition vs 20%: at or above is yes (1), below is no (0).

As a guide, the following entries are already answered.
molecule	class_name
O=C(C1=C[C@@H](C2CCCCC2)C[C@@H](OCc2ccc(CO)cc2)O1)N1CCN(Cc2ccc3c(c2)OCO3)CC1	no (0)
O=C(NCc1ccc2c(c1)OCO2)c1cc([N+](=O)[O-])ccc1N1CCCCC1	yes (1)
CC(C)CC[n+]1ccccc1/C=C/c1ccc(N(C)C)cc1	yes (1)

Would you say `Cc1csc(NC(=O)CSc2nc3[nH]c(=O)cc(O)c3s2)n1` shows inhibition at minimum 20%?
no (0)

Subsequent entry: `N=c1sccn1CC(=O)Nc1ccc(S(N)(=O)=O)cc1`
no (0)

Item: CCOC(=O)C(C)Oc1cccc2c(=O)n(CC(=O)Nc3ccc(OCC)cc3)ccc12 (stereo not drawn)
no (0)

Same question for `O=C(/C=C/c1ccc(O)cc1)c1ccc(NC2=C(N3CCCCC3)C(=O)c3ccccc3C2=O)cc1` please.
no (0)

----------
test_target: Nuclear receptor subfamily 5 group A member 2 (Homo sapiens)
method: LRH-1 (NR5A2) inverse agonists, retest, confirmation, cell-based, luminescence (AID 651613);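 note: HEK293T cells co-transfected with LRH-1 and StAR promoter luciferase reporter; 0% = vehicle wells and 100% = parental cells lacking receptor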
experimental_conditions: cell-based LRH-1 luciferase reporter, inverse agonism; at 3.6 µM; hits give high values
Give met when the value for inhibition is at least 50%. Give not met when it is less.

These recorded examples may help you get a feel for the data.
                                   molecule  class_name
0  COc1cccc(C(C)(O)c2nc(-c3ccc(S(C)(=O)=O)cc3)cs2)c1 (stereo unspecified)         met
1  CC(C)Cn1c(N)c(C(=O)NCC2CCCO2)c2nc3ccccc3nc21 (stereo unspecified)     not met

Does `O=c1c2ccccc2nc(N/N=C/c2c(O)ccc3ccccc23)n1O` have a reported inhibition of at least 50%?
met

Also check `COc1ccc(CCNc2c(C)c(C)nc3ncnn23)cc1`
met

Same for `Cc1ccc(Nc2nc(-c3cccnc3)nc3ccccc23)cc1`
met

Same question, `O=C(Nc1cc(C(F)(F)F)ccc1-n1cncn1)c1ccc([N+](=O)[O-])o1` this time
met

And `O=C(COc1ccc2c3c(c(=O)oc2c1)CCCC3)NCCN1CCOCC1` ?
not met

Another molecule to check: `COc1ccccc1C(=O)Nc1nc2ccccc2s1`
met

Subsequent entry: `Cc1cccc2cc(C#N)c(SCC(=O)N3CC(=O)Nc4ccccc43)nc12`
not met

What about this molecule? `CN(CC(=O)Nc1ccc(N2CCOCC2)cc1)CC(=O)Nc1ccc(N2CCOCC2)cc1`
met

Entry to check: `CCC(=O)N1CCN(c2ccc(Cl)cc2NC(=O)c2ccc([N+](=O)[O-])o2)CC1`
met

----------
method: Gal4-VP16 luciferase reporter inhibitors, counter-screen for COUP-TFII antagonist project, cell-based, luminescence, HEK293 (AID 687007)
experimental_conditions: at 8.5 µM
Some of the results follow. Active and inactive are the calls of the source. Cut-off read from the data, not from the text of the source: active = inhibition above about 13%; inactive = the rest.
Select the correct class. Options are active, inactive and nothing else.

                                   molecule  class_name
0  C#Cc1ccc(NC(=O)C2(C)CCN2C(=O)Cc2ccc(-c3ccccc3)cc2)cc1 (stereo not given)    inactive
1  O=C(Nc1cccc(S(=O)(=O)Nc2ccc(Cl)cc2)c1)c1ccc2c(c1)OCCO2    inactive
2  C[C@@H]1C[C@@H]2O[C@H]2/C=C\C=C\C(=O)Cc2c(Cl)c(O)cc(O)c2C(=O)O1      active
3          COc1ccc(Cn2c(=O)sc3ccccc32)cc1OC    inactive
4  COc1ccc(CC(=O)Nc2nc(-c3ccc(F)c(F)c3)cs2)cc1OC    inactive

// param item: `CCCOc1ccc(Cc2c(Cl)nc(SC)nc2NC)cc1` ; yields the recorded call
inactive

Param item: `CCc1ccc(N(CC)c2ncnc3nc[nH]c23)cc1`
inactive

Next molecule: CCN(CC)P(=O)(C(NC(=O)OC)C(F)(F)C(F)(F)C(F)(F)C(F)F)N(CC)CC (stereo not given)
inactive

Subsequent entry: `OCCCNc1nccc(-c2cc(Nc3cccc(Cl)c3)ncn2)n1`
inactive

How about `O=C(c1c(F)cccc1F)N1CCN(S(=O)(=O)c2ccc3c(c2)OCCO3)CC1` ?
inactive
